target: Enoyl acyl carrier protein (ACP) reductase (InhA) (Mycobacterium tuberculosis); construct: wild type InhA; assay: enzyme kinetic assay, NADH oxidation at […] nm with trans-2-dodecenoyl-CoA substrate; format: biochemical
Sequence (P9WGR1 whole entry, looked up): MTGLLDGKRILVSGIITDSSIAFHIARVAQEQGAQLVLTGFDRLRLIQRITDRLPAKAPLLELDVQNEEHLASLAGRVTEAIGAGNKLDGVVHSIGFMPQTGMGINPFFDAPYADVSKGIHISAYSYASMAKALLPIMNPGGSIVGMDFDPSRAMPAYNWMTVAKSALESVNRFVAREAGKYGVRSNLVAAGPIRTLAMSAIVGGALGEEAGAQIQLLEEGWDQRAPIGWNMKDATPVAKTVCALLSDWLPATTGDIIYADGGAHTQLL
endpoint_label: IC50 (µM)
Give bare numbers, in µM.

// query Entry under review: CCCCCc1cc(O)c(C/C=C(\C)CCC=C(C)C)c(O)c1 . Reported IC50?
// result 5.2

Provenance of the data: paper PMC6680637
